Test: Solubility in pharmaceutical acceptable oils
Assay type: physicochemical
Details: oil or lipid, thermodynamic from solid; Peanut oil, 37° C.
// values below are reported solubility

-- ask State the recorded solubility for this entry: CCCCCCCCCCCCCCCC(=O)O[C@@H]1C[C@@H]2c3cc(OC)c(OC)cc3CCN2C[C@H]1CC(C)C [Compd 1-1]
-- reply 266 mg/mL

-- ask # repeat for COc1cc2c(cc1OC)[C@H]1C[C@@H](O)[C@H](CC(C)C)CN1CC2 [Compd IV, reference compound]
-- reply 10.1 mg/mL

-- ask # repeat for CCCCCCCCCCCCCCCCCCCCCC(=O)O[C@@H]1C[C@@H]2c3cc(OC)c(OC)cc3CCN2C[C@H]1CC(C)C [Compd 1-2]
-- reply 70.2 mg/mL

---

Test: Aqueous solubility of compounds
Format: physicochemical
Conditions: aqueous buffer, thermodynamic from solid; PBS (10 mM, pH 5.8), 37° C.
// values below are reported solubility

Please review the following examples before continuing.
[
  {
    "molecule": "COc1cc2c(cc1OC)[C@H]1C[C@@H](O)[C@H](CC(C)C)CN1CC2 [Compd IV, reference compound]",
    "solubility": "1380 µg/mL"
  },
  {
    "molecule": "CCCCCCCCCCCCCCCCCCCCCC(=O)O[C@@H]1C[C@@H]2c3cc(OC)c(OC)cc3CCN2C[C@H]1CC(C)C",
    "solubility": "< 1 µg/mL"
  }
]

-- ask State the recorded solubility for this entry: CCCCCCCCCCCCCCCC(=O)O[C@@H]1C[C@@H]2c3cc(OC)c(OC)cc3CCN2C[C@H]1CC(C)C
-- reply < 1 µg/mL

---

Target: Vesicular Monoamine Transporter Isoform 2 (VMAT2)
Experiment: VMAT2 competition binding assay ([3H]dihydrotetrabenazine, whole brain membranes)
Details: read-out: VMAT2 binding affinity IC50; [3H]Dihydrotetrabenazine 10 nM, 30 min at 25° C.
pIC50: −log10 of the molar value.
// values below are reported pIC50

[
  {
    "compound": "CCCCCCCCCCCCCCCCCCCCCC(=O)O[C@@H]1C[C@@H]2c3cc(OC)c(OC)cc3CCN2C[C@H]1CC(C)C [Compd 1-2]",
    "test.result": "< 5.00"
  }
]

Continue with the next compound.
-- ask State the recorded pIC50 for this entry: CCCCCCCCCCCCCCCC(=O)O[C@@H]1C[C@@H]2c3cc(OC)c(OC)cc3CCN2C[C@H]1CC(C)C [Compd 1-1]
-- reply < 5.00

---

Experiment: Solubility in pharmaceutical acceptable organic solvents
Type: physicochemical
Conditions: organic solvent or mixture, thermodynamic from solid; DMAc, 37° C.
// values below are reported solubility
Answer format: numeric, mg/mL implied, no suffix.

-- ask State the recorded solubility for this entry: COc1cc2c(cc1OC)[C@H]1C[C@@H](O)[C@H](CC(C)C)CN1CC2 [Compd IV, reference compound]
-- reply 555

-- ask # repeat for CCCCCCCCCCCCCCCC(=O)O[C@@H]1C[C@@H]2c3cc(OC)c(OC)cc3CCN2C[C@H]1CC(C)C
-- reply 513

-- ask # repeat for CCCCCCCCCCCCCCCCCCCCCC(=O)O[C@@H]1C[C@@H]2c3cc(OC)c(OC)cc3CCN2C[C@H]1CC(C)C
-- reply 8.81

---

// values below are reported pKi
Molecular target: Vesicular Monoamine Transporter Isoform 2 (VMAT2)
Assay: VMAT2 competition binding assay ([3H]dihydrotetrabenazine, whole brain membranes)
Settings: read-out: VMAT2 binding affinity Ki; Cheng-Prusoff from IC50
pKi: −log10 of the molar value.

[
  {
    "structure.string": "CCCCCCCCCCCCCCCCCCCCCC(=O)O[C@@H]1C[C@@H]2c3cc(OC)c(OC)cc3CCN2C[C@H]1CC(C)C",
    "pKi": "< 5.00"
  }
]

Continue with the next compound.
-- ask Entry CCCCCCCCCCCCCCCC(=O)O[C@@H]1C[C@@H]2c3cc(OC)c(OC)cc3CCN2C[C@H]1CC(C)C , system Vesicular Monoamine Transporter Isoform 2 (VMAT2): what pKi was measured?
-- reply < 5.00

---

Assay: Aqueous solubility of compounds
Format: physicochemical
Conditions: aqueous buffer, thermodynamic from solid; PBS (10 mM, pH 7.4), 37° C.
// values below are reported solubility
Answer format: numeric, µg/mL implied, no suffix.

[
  {
    "molecule": "CCCCCCCCCCCCCCCC(=O)O[C@@H]1C[C@@H]2c3cc(OC)c(OC)cc3CCN2C[C@H]1CC(C)C",
    "unit.annotation": "µg/mL",
    "solubility": 1
  }
]

-- ask State the recorded solubility for this entry: COc1cc2c(cc1OC)[C@H]1C[C@@H](O)[C@H](CC(C)C)CN1CC2 [Compd IV, reference compound]
-- reply 244

---

// values below are reported solubility
Test: Solubility in pharmaceutical acceptable organic solvents
Format: physicochemical
Conditions: organic solvent or mixture, thermodynamic from solid; Triacetin, 37° C.
Answer format: numeric, mg/mL implied, no suffix.

[
  {
    "compound": "COc1cc2c(cc1OC)[C@H]1C[C@@H](O)[C@H](CC(C)C)CN1CC2 [Compd IV, reference compound]",
    "solubility [mg/mL]": 26.1
  }
]

-- ask State the recorded solubility for this entry: CCCCCCCCCCCCCCCC(=O)O[C@@H]1C[C@@H]2c3cc(OC)c(OC)cc3CCN2C[C@H]1CC(C)C
-- reply 29.9

---

Assay: Solubility in pharmaceutical acceptable oils
Type: physicochemical
Conditions: oil or lipid, thermodynamic from solid; Castor oil, 37° C.
// values below are reported solubility
Answer format: numeric, mg/mL implied, no suffix.

[
  {
    "molecule": "COc1cc2c(cc1OC)[C@H]1C[C@@H](O)[C@H](CC(C)C)CN1CC2 [Compd IV, reference compound]",
    "unit.annotation": "mg/mL",
    "test.result": 30
  },
  {
    "molecule": "CCCCCCCCCCCCCCCCCCCCCC(=O)O[C@@H]1C[C@@H]2c3cc(OC)c(OC)cc3CCN2C[C@H]1CC(C)C",
    "unit.annotation": "mg/mL",
    "test.result": 31.4
  }
]

Continue with the next molecule.
-- ask State the recorded solubility for this entry: CCCCCCCCCCCCCCCC(=O)O[C@@H]1C[C@@H]2c3cc(OC)c(OC)cc3CCN2C[C@H]1CC(C)C
-- reply 370

---

// values below are reported solubility
Test: Aqueous solubility of compounds
Assay type: physicochemical
Conditions: borate-saline buffer, aqueous buffer, thermodynamic from solid; Borate (10 mM, pH 8.5), 37° C.
Answer format: numeric, µg/mL implied, no suffix.

[
  {
    "molecule": "COc1cc2c(cc1OC)[C@H]1C[C@@H](O)[C@H](CC(C)C)CN1CC2 [Compd IV, reference compound]",
    "test.result": 140
  },
  {
    "molecule": "CCCCCCCCCCCCCCCC(=O)O[C@@H]1C[C@@H]2c3cc(OC)c(OC)cc3CCN2C[C@H]1CC(C)C [Compd 1-1]",
    "test.result": 32.6
  }
]

Continue with the next molecule.
-- ask State the recorded solubility for this entry: CCCCCCCCCCCCCCCCCCCCCC(=O)O[C@@H]1C[C@@H]2c3cc(OC)c(OC)cc3CCN2C[C@H]1CC(C)C [Compd 1-2]
-- reply 1.7

---

Experiment: Solubility in pharmaceutical acceptable organic solvents
Type: physicochemical
Settings: organic solvent or mixture, thermodynamic from solid; DMSO, 37° C.
// values below are reported solubility
Answer format: numeric, µg/mL implied, no suffix.

[
  {
    "compound": "COc1cc2c(cc1OC)[C@H]1C[C@@H](O)[C@H](CC(C)C)CN1CC2 [Compd IV, reference compound]",
    "unit.annotation": "µg/mL",
    "test.result": 410000
  }
]

-- ask State the recorded solubility for this entry: CCCCCCCCCCCCCCCCCCCCCC(=O)O[C@@H]1C[C@@H]2c3cc(OC)c(OC)cc3CCN2C[C@H]1CC(C)C [Compd 1-2]
-- reply 150

-- ask # repeat for CCCCCCCCCCCCCCCC(=O)O[C@@H]1C[C@@H]2c3cc(OC)c(OC)cc3CCN2C[C@H]1CC(C)C [Compd 1-1]
-- reply 7800
